experimental_protocol: secreted streptokinase activity reduction in group A streptococci – OD405 absorbance, dry powder, set 3, dose response (AID 504351)
condition_set: S. pyogenes UMAA2166, streptokinase activity in supernatant, OD405, 6 h; at 50 µM (top of the series)
Records with an inconclusive call do not appear. Active and inactive are the calls of the source.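 How the source made its calls: active means every replicate test active, meaning falling signal with half-maximal potency at most ten times the top valid dose; inconclusive means replicate test calls disagree with each other; inactive means every replicate test inactive, including signal rising instead.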
reported_metric: activity change, negative = inhibition

Here are 5 molecules together with their reported answers.
[[record]]
compound = "CCCOc1ccc(-c2nc3ccccc3c(=O)[nH]2)cc1"
reported_metric = "activity change, negative = inhibition"
assay_value = "inactive"

[[record]]
compound = "O=c1[nH]c(-c2cccc(F)c2)nc2ccccc12"
reported_metric = "activity change, negative = inhibition"
assay_value = "inactive"

[[record]]
compound = "COc1ccc(Sc2ccc(NCc3ccccc3Cl)cc2C#N)cc1"
reported_metric = "activity change, negative = inhibition"
assay_value = "inactive"

[[record]]
compound = "Cc1ccc(C(=O)n2ncc3ccccc32)cc1"
reported_metric = "activity change, negative = inhibition"
assay_value = "inactive"

[[record]]
compound = "O=c1[nH]c(-c2ccc(Cl)cc2)nc2ccccc12"
reported_metric = "activity change, negative = inhibition"
assay_value = "inactive"


API: the following record is the query input.
Task: I would be grateful if you could share the reported activity change, negative = inhibition for CCCOc1ccc(-c2nc(Oc3ccc(F)cc3)c3ccccc3n2)cc1 .
Output: inactive
